pIC50 values by entry
- measurement target: Neuronal acetylcholine receptor; alpha3/beta4 (Homo sapiens, UniProt P30926+P32297)
- Sequence (P30926 whole entry): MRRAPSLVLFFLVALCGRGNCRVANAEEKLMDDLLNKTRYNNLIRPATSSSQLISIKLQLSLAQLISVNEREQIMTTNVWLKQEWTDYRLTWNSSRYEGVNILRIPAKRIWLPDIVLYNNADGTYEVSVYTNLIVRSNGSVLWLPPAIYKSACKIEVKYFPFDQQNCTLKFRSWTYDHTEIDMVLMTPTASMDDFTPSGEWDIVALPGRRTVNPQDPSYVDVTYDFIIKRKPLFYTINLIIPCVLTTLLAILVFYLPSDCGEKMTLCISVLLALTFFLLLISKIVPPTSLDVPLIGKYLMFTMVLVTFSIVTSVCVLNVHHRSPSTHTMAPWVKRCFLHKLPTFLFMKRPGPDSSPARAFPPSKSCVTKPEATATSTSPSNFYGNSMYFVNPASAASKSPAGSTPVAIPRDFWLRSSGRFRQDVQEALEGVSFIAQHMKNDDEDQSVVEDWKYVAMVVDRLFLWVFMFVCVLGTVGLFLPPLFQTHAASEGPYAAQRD
- Sequence (P32297 whole entry): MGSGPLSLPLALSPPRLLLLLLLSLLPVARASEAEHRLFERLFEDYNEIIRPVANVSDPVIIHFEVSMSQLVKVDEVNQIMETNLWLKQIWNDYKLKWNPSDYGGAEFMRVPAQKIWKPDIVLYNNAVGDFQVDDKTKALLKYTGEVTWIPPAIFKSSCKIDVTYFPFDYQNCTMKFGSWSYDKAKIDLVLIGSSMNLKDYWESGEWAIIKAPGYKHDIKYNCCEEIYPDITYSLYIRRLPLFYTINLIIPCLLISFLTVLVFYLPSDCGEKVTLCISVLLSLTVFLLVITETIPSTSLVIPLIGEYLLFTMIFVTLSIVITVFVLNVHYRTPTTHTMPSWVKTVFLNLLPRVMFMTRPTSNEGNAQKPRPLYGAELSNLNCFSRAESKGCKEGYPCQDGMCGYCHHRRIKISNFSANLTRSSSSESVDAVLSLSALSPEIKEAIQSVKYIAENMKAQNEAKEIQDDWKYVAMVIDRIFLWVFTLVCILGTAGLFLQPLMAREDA
- experiment summary: Antagonist activity at human alpha3beta4 nAChR expressed in HEK tsA201 cells assessed as inhibition of epibatidine-induced intracellular calcium accumulation after 1 hr by fluorescence assay
- Type: functional, cell-based, HEK293
pIC50: −log10 of the molar value.

test smiles: O=C(CN1CCN(S(=O)(=O)c2ccc(F)cc2)CC1)Nc1ccccc1F
measurement target: Neuronal acetylcholine receptor; alpha3/beta4 (Homo sapiens, UniProt P30926+P32297)
bound operator: =
pIC50: 4.71

test smiles: O=C(O)c1cc(NCc2cccs2)ccc1N1CCOCC1
measurement target: Neuronal acetylcholine receptor; alpha3/beta4 (Homo sapiens, UniProt P30926+P32297)
bound operator: <
pIC50: 4.00

test smiles: C=CCN1C(=O)[C@](O)(CC(=O)c2ccco2)c2cc(Cl)ccc21
measurement target: Neuronal acetylcholine receptor; alpha3/beta4 (Homo sapiens, UniProt P30926+P32297)
bound operator: <
pIC50: 4.00

test smiles: Cc1cccc(NC(=O)c2cc(N)ccc2N2CCCCC2)n1
measurement target: Neuronal acetylcholine receptor; alpha3/beta4 (Homo sapiens, UniProt P30926+P32297)
bound operator: =
pIC50: 4.33
